So I've got a bunch of compounds here, and I need their cytotoxicity at 10 µM values.
Assay: Toxicity liver stage against HepG2, at 10uM
Type: cell-based
Set-up: test concentration 10 uM, cell line HepG2-A16-CD81EGFP
Conditions: human, HepG2-A16-CD81EGFP cells; read-out: INHIBITION
One number for each entry, in %.

Example cases with answers are listed next.
compound: CC(=O)N1CCCN(C(C(=O)O)c2cccc(C)c2C)CC1 (configuration not stated)
reported.metric: cytotoxicity at 10 µM
reported.measurement: -2.75

compound: CC(C)(O)CSCCNC(=O)c1cc(F)ccc1F
reported.metric: cytotoxicity at 10 µM
reported.measurement: -4.11

compound: c1cncc(-c2noc(CCNc3ncnc4c3CCNCC4)n2)c1
reported.metric: cytotoxicity at 10 µM
reported.measurement: 3.38

compound: NCCCNS(=O)(=O)Cc1ccc(Br)cc1
reported.metric: cytotoxicity at 10 µM
reported.measurement: -0.447

compound: Cc1nc(N2CCOc3ccc(CO)cc3C2)c2c(C)noc2n1
reported.metric: cytotoxicity at 10 µM
reported.measurement: 2.18

Look at each compound and report its cytotoxicity at 10 µM.
1. CC(C)c1nc(CCN(C)c2nccc(N3CCCC(O)C3)n2)no1 (configuration not stated)
2. N#CCCCn1cnc2c(F)cc(Br)cc2c1=O
3. Cc1c(C(=O)NCC2CCN(C)C2)n(C)c2c(C)cccc12 (configuration not stated)

Output line:
1. -12
2. 4.29
3. 10.1

Look at each compound and report its cytotoxicity at 10 µM.
1. NC(=O)C1(Cc2ccccc2-c2cncnc2)CCCNC1 (configuration not stated)
2. O=C(NCc1ccccc1F)N1CCC(C2OCCO2)CC1
3. COc1ccc(-c2noc(CN3CCc4cncnc4C3)n2)cc1
4. CN1CCN(C(=O)[C@H]2C[C@H]3[C@H](CCN3Cc3cccs3)O2)CC1

Output line:
1: 3.35; 2: 2.76; 3: -0.215; 4: -7.64

###

Test: Toxicity liver stage against HepG2, at 10uM
Format: cell-based
Set-up: test concentration 10 uM, cell line HepG2-A16-CD81EGFP
Details: human, HepG2-A16-CD81EGFP cells; read-out: INHIBITION
reported.metric: cytotoxicity at 10 µM (%)
Give bare numbers, in %.

Look at each molecule and report its cytotoxicity at 10 µM.
1. CN1CC(=O)N(c2cnn(C)c2)CC12CCN(Cc1ccccc1)C2 (stereo unspecified)
2. COC1COC2(CCN(Cc3ccc4ccccc4n3)CC2)C1 (stereo unspecified)
3. Cn1cnnc1CN1CCC2(CCC(=O)N(Cc3ccccn3)C2)CC1

Output line:
-7.24
5.05
7.82

Look at each molecule and report its cytotoxicity at 10 µM.
1. Cc1nccc(CN2CC[C@H](Oc3cccc(F)c3)[C@@](C)(O)C2)n1
2. CN(CC1(O)CCCN(c2ccccn2)C1)C(=O)Cc1ccsc1 (stereo unspecified)
3. Cc1cc(N2CCCN(C(=O)Cc3cc(F)cc(F)c3)CC2)ccn1
4. Cc1ccc(C(=O)N2CCCS2(=O)=O)cc1Cl
5. COCCn1c(CN2CCCO2)cnc1S(=O)(=O)CC1CCCCC1
6. COc1ccc(F)c(CN2CCC(c3cc(O)nc(C)n3)C2)c1 (stereo unspecified)
7. Cc1ocnc1C(=O)N1CC[C@@]2(O)CCN(C(=O)N3CCCC3)C[C@H]2C1

Output line:
2.84
-1.11
-6.7
2.29
-8.62
5.61
-7.96

So for CC(C)N1CCCC(CNC(=O)c2ccnc(-n3ccnc3)c2)C1 (stereo unspecified) , the logged cytotoxicity at 10 µM turned out to be -6.23

###

So I've got a bunch of compounds here, and I need their cytotoxicity at 10 µM values.
Assay: Toxicity liver stage against HepG2, at 10uM
Type: cell-based
Set-up: test concentration 10 uM, cell line HepG2-A16-CD81EGFP
Settings: human, HepG2-A16-CD81EGFP cells; read-out: INHIBITION
Give bare numbers, in %.

compound: c1cc(C2CN(C3CCCC3)C2)n[nH]1
reported.metric: cytotoxicity at 10 µM
result.unit: %
reported.measurement: 4

Look at each compound and report its cytotoxicity at 10 µM.
1. CC(=O)NCc1cc2n(n1)CCN(Cc1cccc(Cl)c1F)C2
2. O=S1(=O)C[C@@H]2[C@H](C1)N(Cc1cc(F)cc(Cl)c1)CCN2CCO

Output line:
7.65
-4.71

Look at each compound and report its cytotoxicity at 10 µM.
1. Cc1nnsc1C(=O)N1CCCC(c2nccn2Cc2cscn2)C1 (stereo not given)
2. COc1cccc2c1ccn2CCNC(C)=O

Output line:
1. 2.62
2. 1.89

###

Assay: Toxicity liver stage against HepG2, at 10uM
Type: cell-based
Parameters: test concentration 10 uM, cell line HepG2-A16-CD81EGFP
Settings: human, HepG2-A16-CD81EGFP cells; read-out: INHIBITION
reported.metric: cytotoxicity at 10 µM (%)
Give bare numbers, in %.

compound: CN(C)CCN1Cc2ncn(C)c2C(COCC(=O)N(C)C)C1 (stereo unspecified)
cytotoxicity at 10 µM (%): 7.83
--
compound: CCN(CC(C)C#N)C(=O)CNc1ccc(C(N)=O)c(C)c1 (stereo unspecified)
cytotoxicity at 10 µM (%): 8.54
--
compound: CC(C)(CO)Nc1cc(-c2ccncc2)ncn1
cytotoxicity at 10 µM (%): -0.89
--
compound: O=C(c1cnc2[nH]c(=O)[nH]c(=O)c2c1)N1CCCC1C1CCCCC1 (stereo unspecified)
cytotoxicity at 10 µM (%): -5.94
--
compound: CCn1nnc2c1C(COCCN(C)C)CN(S(=O)(=O)CC)C2 (stereo unspecified)
cytotoxicity at 10 µM (%): -4.38

Now let's try a different one.
So for `Cc1cnn(C2CN(CC(=O)NCC3(c4ccccc4)CCC3)C2)c1` , the logged cytotoxicity at 10 µM turned out to be -4.2

###

So I've got a bunch of molecules here, and I need their cytotoxicity at 10 µM values.
Test: Toxicity liver stage against HepG2, at 10uM
Assay type: cell-based
Design: test concentration 10 uM, cell line HepG2-A16-CD81EGFP
Conditions: human, HepG2-A16-CD81EGFP cells; read-out: INHIBITION
Hey, just the number and the unit after it is fine.

Example cases with answers are listed next.
molecule: CN(CCCc1cc(-c2ccccc2)no1)S(C)(=O)=O
reported.metric: cytotoxicity at 10 µM
reported.measurement: -14.4%
//
molecule: CCn1cc(NC(=O)C2CCN(Cc3noc(C4CC4)n3)CC2)cn1
reported.metric: cytotoxicity at 10 µM
reported.measurement: -1.41%
//
molecule: CCn1nc2c(cc1=O)CN(CC(=O)Nc1cc(C)no1)CC2
reported.metric: cytotoxicity at 10 µM
reported.measurement: -5.22%

Look at each molecule and report its cytotoxicity at 10 µM.
1. O=C(c1cscn1)N1CCC[C@]2(C[C@@H](OCC3CC3)CO2)C1
2. Cc1noc(C)c1CN1CC[C@H]2OCC[C@@]2(C(=O)NCC2CC2)C1
3. CC(C)n1nc(CNc2ncccn2)c2c1CN(C1CCOCC1)CC2
4. CN(c1ccc(C(=O)NCCCN2CCCC2)c(Cl)c1)S(C)(=O)=O

Output line:
1: -69.9%; 2: -77.2%; 3: -129%; 4: -10%

Look at each molecule and report its cytotoxicity at 10 µM.
1. COCCOc1ccc(NC(=O)N2CCCC2c2ccncc2)cn1 (stereo unspecified)
2. CC(=O)N1CCN([C@@H]2CN(C(=O)c3ccccc3)C[C@H]2O)CC1
3. COCCCN1CC2(CCN(C(=O)c3ccc(=O)n(C)c3)CC2)CC1=O
4. CCNC(=O)CCC(=O)Nc1ccc2nn(C(C)C)cc2c1

Output line:
1. -3.49%
2. -4.8%
3. -9.69%
4. -141%

###

Assay: Toxicity liver stage against HepG2, at 10uM
Assay type: cell-based
Parameters: test concentration 10 uM, cell line HepG2-A16-CD81EGFP
Conditions: human, HepG2-A16-CD81EGFP cells; read-out: INHIBITION
reported.metric: cytotoxicity at 10 µM (%)
One number for each entry, in %.

Example cases with answers are listed next.
compound: O=C(c1cccc(Cl)c1)C1CCCN(c2nnc(C3CCC3)o2)C1 (configuration not stated)
result.unit: %
reported.measurement: 0.409

compound: CN(C)C(CNC(=O)c1nc(N2CCCC2)ncc1Cl)c1ccco1 (configuration not stated)
result.unit: %
reported.measurement: 5.92

compound: Cc1n[nH]c(C)c1C1COCCN1C(=O)Cc1cccc(F)c1 (configuration not stated)
result.unit: %
reported.measurement: -10.7

compound: COC(=O)N1CCN(Cc2ccccc2Cl)CC1
result.unit: %
reported.measurement: -0.227

compound: Cc1cc(N2CCCC2c2cncc(N(C)C)n2)ncn1 (configuration not stated)
result.unit: %
reported.measurement: -15.2

compound: COCCN1CCC2(CCN(Cc3nccs3)CC2)C1=O
result.unit: %
reported.measurement: -4.36

compound: COC1COC2(CCN(CC3CCOCC3)CC2)C1 (configuration not stated)
result.unit: %
reported.measurement: -110

compound: CS(=O)(=O)CCc1ncnn1-c1ccc(F)c(Cl)c1
result.unit: %
reported.measurement: -4.56

compound: CC(C)c1nc(C2CCCN2Cc2ccccc2C#N)no1 (configuration not stated)
result.unit: %
reported.measurement: -7.62

compound: COCC(=O)N1CCC(c2cc3ncccc3c(O)n2)CC1
result.unit: %
reported.measurement: -22.7

Look at each compound and report its cytotoxicity at 10 µM.
1. O=C(NS(=O)(=O)Cc1ccc(F)cc1)C1CCc2ccccc21 (configuration not stated)
2. FC(F)(F)c1cc(NCCn2ncnn2)nc(-c2cccnc2)n1

Output line:
1. -13.1
2. 18.9
